- TARGET SYSTEM: HIV-1 Env of isolate MGRM-D-029 (subtype D) (HIV-1)
- ASSAY NAME: cell-based or functional assay

# BINDER, IC50 (neutralization)
data = [
    ("PGT-127 (antibody, V domains shown) VH: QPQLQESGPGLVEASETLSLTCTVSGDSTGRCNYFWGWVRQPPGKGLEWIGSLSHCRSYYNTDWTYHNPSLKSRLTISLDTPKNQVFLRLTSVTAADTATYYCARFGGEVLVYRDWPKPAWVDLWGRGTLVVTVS VL: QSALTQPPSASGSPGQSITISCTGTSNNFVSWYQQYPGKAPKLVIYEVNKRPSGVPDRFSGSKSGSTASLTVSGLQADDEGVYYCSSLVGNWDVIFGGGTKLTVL", "> 50 µg/mL"),
    ("PGT-125 (antibody, V domains shown) VH: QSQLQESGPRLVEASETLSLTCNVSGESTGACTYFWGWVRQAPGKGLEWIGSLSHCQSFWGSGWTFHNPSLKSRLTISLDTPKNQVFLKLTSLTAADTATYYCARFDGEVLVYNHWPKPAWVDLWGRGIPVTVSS VL: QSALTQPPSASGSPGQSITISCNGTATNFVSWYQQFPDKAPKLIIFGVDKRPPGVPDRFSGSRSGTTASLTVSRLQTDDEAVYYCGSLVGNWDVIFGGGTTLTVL", "> 50 µg/mL"),
    ("PGT-128 (antibody, V domains shown) VH: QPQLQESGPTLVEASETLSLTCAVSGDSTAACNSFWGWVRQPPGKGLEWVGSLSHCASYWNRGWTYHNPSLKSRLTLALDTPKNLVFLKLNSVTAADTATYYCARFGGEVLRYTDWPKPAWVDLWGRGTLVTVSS VL: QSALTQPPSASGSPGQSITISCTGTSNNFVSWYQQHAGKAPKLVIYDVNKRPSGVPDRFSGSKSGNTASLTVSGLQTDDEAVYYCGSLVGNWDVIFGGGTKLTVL", "> 50 µg/mL"),
    ("PGT-137 (antibody, V domains shown) VH: EVHLEESGPGLVRPSETLSLTCTASGGSIRGGEWGDSDYHWGWVRHSPEKGLEWIGSIHWRGTTHYNAPFRGRGRLSIDLSRNQFSLRLTSVTAEDTAVYYCVKHKYHDIVMVVPIAGWFDPWGQGLQVTVSS VL: EIMMTQSPAILSVSPGDRATLSCRASQSVKNNLAWYQKRPGQAPRLLIFDTSSRASGIPARFSGGGSGTEFTLTVNSMQSEDFATYYCQQYEEWPRTFGQGTKVEIK", "> 50 µg/mL"),
]

Recorded values, source patent US20160264649A1.
